Form field: EC50 (one value per entry).
System: NS5A chimeric genotype 2a JFH-1 replicon with genotype 2a J6 strain NS5A gene (M31 present)
assay-text: microbe, parasite or virus in culture
Assay type: cell-based, HCV
test-context: Hepatitis C virus, read-out: 2a J6
measured-metric: EC50

INSERT INTO measurements (compound, measured_metric, test_result) VALUES
  ('COC(=O)N[C@H](C(=O)N1[C@H](c2nc3ccc4cc5c(cc4c3[nH]2)OCc2cc(-c3cnc(C4CCCN4C(=O)[C@H](NC(=O)OC)c4ccccc4)[nH]3)ccc2-5)C[C@@H]2CCC[C@@H]21)C(C)C (some centres unmarked)', 'EC50', '< 1 nM'),
  ('CC[C@H](C)[C@H](NC(=O)OC)C(=O)N1[C@@H](C)CC[C@H]1c1ncc(-c2ccc3c(c2)COc2cc4c(ccc5nc([C@@H]6C[C@H](COC)CN6C(=O)[C@@H](NC(=O)OC)C(C)C)[nH]c54)cc2-3)[nH]1', 'EC50', '< 1 nM'),
  ('CC[C@H](C)[C@H](NC(=O)OC)C(=O)N1C[C@@H](COC)C[C@H]1c1nc2ccc3cc4c(cc3c2[nH]1)OCc1cc(-c2cnc([C@@H]3CC[C@H](C)N3C(=O)[C@@H](NC(=O)OC)[C@@H](C)CC)[nH]2)ccc1-4', 'EC50', '< 1 nM'),
  ('COC(=O)N[C@H](C(=O)N1C[C@@H](C)C[C@H]1c1nc2ccc3cc4c(cc3c2[nH]1)OCc1cc(-c2cnc([C@@H]3C[C@H](C)CN3C(=O)[C@H](NC(=O)OC)c3ccccc3)[nH]2)ccc1-4)C(C)C', 'EC50', '< 1 nM'),
  ('COC[C@H]1C[C@@H](c2nc3ccc4cc5c(cc4c3[nH]2)OCc2cc(-c3ccc4nc([C@@H]6CCCN6C(=O)[C@@H](NC(=O)OC)C(C)C)[nH]c4c3)ccc2-5)N(C(=O)[C@@H](NC(=O)OC)C(C)C)C1', 'EC50', '> 5 nM'),
  ('COC[C@H]1C[C@@H](c2nc3ccc4cc5c(cc4c3[nH]2)OCc2cc(-c3cnc([C@@H]4CCCN4C(=O)[C@@H](NC(=O)OC)[C@@H](C)OC)[nH]3)ccc2-5)N(C(=O)[C@H](NC(=O)OC)c2ccccc2)C1', 'EC50', '< 1 nM'),
  ('COC(=O)N[C@H](C(=O)N1C[C@@H](C)C[C@H]1c1ncc(-c2ccc3c(c2)COc2cc4c(ccc5nc([C@@H]6CC[C@H](C)N6C(=O)[C@@H](NC(=O)OC)C(C)C)[nH]c54)cc2-3)[nH]1)C(C)C', 'EC50', '< 1 nM'),
  ('CCO[C@H]1C[C@@H](c2nc3ccc4cc5c(cc4c3[nH]2)OCc2cc(-c3cnc([C@@H]4CCCN4C(=O)[C@H](NC(=O)OC)c4ccccc4)[nH]3)ccc2-5)N(C(=O)[C@@H](NC(=O)OC)C(C)C)C1', 'EC50', '< 1 nM'),
  ('COC[C@H]1C[C@@H](c2ncc(-c3ccc4c(c3)COc3cc5c(ccc6nc([C@@H]7C[C@H](COC)CN7C(=O)[C@@H](NC(=O)OC)C(C)C)[nH]c65)cc3-4)[nH]2)N(C(=O)[C@@H](NC(=O)OC)C(C)C)C1', 'EC50', '< 1 nM'),
  ('CCC(C)C(NC(=O)OC)C(=O)N1CC(COC)C[C@H]1c1nc2ccc3cc4c(cc3c2[nH]1)OCc1cc(-c2cnc(C3C[C@H](C)CN3C(=O)[C@@H](NC(=O)OC)C(C)CC)[nH]2)ccc1-4 (stereo in doubt)', 'EC50', '< 1 nM'),
  ('COC[C@H]1C[C@@H](c2nc3ccc4cc5c(cc4c3[nH]2)OCc2cc(-c3cnc([C@@H]4CC[C@H](C)N4C(=O)[C@@H](NC(=O)OC)C(C)C)[nH]3)ccc2-5)N(C(=O)[C@@H](NC(=O)OC)[C@@H](C)OC)C1', 'EC50', '< 1 nM'),
  ('COC(=O)N[C@H](C(=O)N1C[C@@H](COC(F)F)C[C@H]1c1ncc(-c2ccc3c(c2)COc2cc4c(ccc5nc([C@@H]6CC[C@H](C)N6C(=O)[C@@H](NC(=O)OC)C(C)C)[nH]c54)cc2-3)[nH]1)C(C)C', 'EC50', '< 1 nM'),
  ('COC[C@H]1C[C@@H](c2ncc(-c3ccc4c(c3)COc3cc5c(ccc6nc([C@@H]7C[C@H](COC(F)F)CN7C(=O)[C@@H](NC(=O)OC)C(C)C)[nH]c65)cc3-4)[nH]2)N(C(=O)[C@@H](NC(=O)OC)C(C)C)C1', 'EC50', '< 1 nM'),
  ('COC[C@@H]1C[C@@H](c2nc3c([nH]2)-c2cc4c(cc2CC3)-c2ccc(-c3cnc([C@@H]5CCCN5C(=O)[C@@H](NC(=O)OC)C(C)C)[nH]3)cc2CO4)N(C(=O)[C@@H](NC(=O)OC)C(C)C)C1', 'EC50', '> 5 nM'),
  ('COC(=O)N[C@H](C(=O)N1CCC[C@H]1c1ncc(-c2ccc3c(c2)COc2cc4c(ccc5nc([C@@H]6C[C@H](C)CN6C(=O)[C@@H](NC(=O)OC)C(C)C)[nH]c54)cc2-3)[nH]1)C(C)C', 'EC50', '< 1 nM'),
  ('COC(=O)N[C@H](C(=O)N1[C@@H](C)CC[C@H]1c1ncc(-c2ccc3c(c2)COc2cc4c(ccc5nc([C@@H]6CCCN6C(=O)[C@H](N)c6ccccc6)[nH]c54)cc2-3)[nH]1)C(C)C', 'EC50', '< 1 nM'),
  ('COC[C@H]1C[C@@H](c2ncc(-c3ccc4c(c3)COc3cc5c(ccc6nc([C@@H]7C[C@@H]8C[C@@H]8N7C(=O)[C@@H](NC(=O)OC)C(C)C)[nH]c65)cc3-4)[nH]2)N(C(=O)[C@H](NC(=O)OC)c2ccccc2)C1', 'EC50', '< 1 nM');
